B1: LCOR (parent)
chain: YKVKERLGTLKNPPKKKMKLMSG

variants of: B1; assay: protein stability index of a GFP-peptide fusion (GPS, HEK-293T) (PSI 1-6); higher = more stable; conditions: c terminus: native;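 also: lentivirally expressed fusions sorted by FACS into six bins by GFP to DsRed ratio, PSI derived from sequencing read proportions per bin multiplied by bin number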
Use 1 (yes) when the recorded protein stability index is no lower than 2; use 0 (no) when it is lower.

P14M: 1 (yes)
K16R: 1 (yes)
L7P: 0 (no)
K17M: 0 (no)
G8I: 0 (no)

## Input Threshold query (protein stability index >= 2) on "K19A"
## Output 1 (yes)

## Input Threshold query (protein stability index >= 2) on "L10Y"
## Output 1 (yes)

## Input Threshold query (protein stability index >= 2) on "P14A"
## Output 0 (no)
